Reference source for all entries: ChEMBL document CHEMBL4689842

Tested on: HEK-293T
Assay: Multiplex assay against HEK293T
Type: toxicity, cell-based
Conditions: human, 12 h, 1 µM, compound concentration 1 uM, replicate 2
reportedMetric: Population Normal (%)

compound: CCCS(=O)(=O)Nc1ccc(F)c(C(=O)c2c[nH]c3ncc(Cl)cc23)c1F
targetOrTestSystem: HEK-293T
reading: 97
--
compound: COc1cccc2cc(-c3nc([C@H]4CC[C@H](C(=O)O)CC4)n4ncnc(N)c34)[nH]c12
targetOrTestSystem: HEK-293T
reading: 93
--
compound: CCc1cccc(CC)c1NC(=O)c1nn(C)c2c1CCc1cnc(Nc3ccc(N4CCN(C)CC4)cc3OC)nc1-2
targetOrTestSystem: HEK-293T
reading: 92
--
compound: CN1CCC(=C2c3ccccc3CC(=O)c3sccc32)CC1.O=C(O)/C=C/C(=O)O [KETOTIFEN FUMARATE]
targetOrTestSystem: HEK-293T
reading: 95
--
compound: Cc1ccc2nc(NCCN)c3ncc(C)n3c2c1.O=C(O)C(F)(F)F.O=C(O)C(F)(F)F
targetOrTestSystem: HEK-293T
reading: 97
--
compound: Cl.O=C(c1ccc(Nc2nccc(-c3cc4ccccc4s3)n2)cc1)N1CCC(N2CCCC2)CC1
targetOrTestSystem: HEK-293T
reading: 96
--
compound: S=C(NCCCc1c[nH]cn1)NCCCN(Cc1ccc(Cl)c(Cl)c1)c1ccc(Br)cn1
targetOrTestSystem: HEK-293T
reading: 96
--
compound: CNC(=O)c1ccc(Nc2nc(OC3CCCC3)c3c(-c4ccc5nc(C)oc5c4)c[nH]c3n2)c(OC)c1
targetOrTestSystem: HEK-293T
reading: 95

----------
Test system: U2OS
Assay: Multiplex assay against U2OS
Format: toxicity, cell-based
Conditions: human, 12 h, 10 µM, compound concentration 10 uM, replicate 2
reportedMetric: Population Apoptotic (%)

compound: CNC(=O)c1ccc(Nc2nc(OC3CCCC3)c3c(-c4ccc5nc(C)oc5c4)c[nH]c3n2)c(OC)c1
reading: 25%
--
compound: COc1ccc(-c2ccc3c(N4CCOCC4)nc(N4C[C@@H](C)O[C@@H](C)C4)nc3n2)cc1CO
reading: 33%
--
compound: COCC(=O)NC/C=C/c1ccc2ncnc(Nc3ccc(Oc4ccc(C)nc4)c(C)c3)c2c1
reading: 80%
--
compound: CN1CCC(=C2c3ccccc3CC(=O)c3sccc32)CC1.O=C(O)/C=C/C(=O)O [KETOTIFEN FUMARATE]
reading: 33%

----------
Catalogue of Population Healthy Nuclei (%) readings, one per entry.
Tested on: HEK-293T
Test: Multiplex assay against HEK293T
Format: toxicity, cell-based
Details: human, 12 h, 10 µM, compound concentration 10 uM, replicate 2
reportedMetric: Population Healthy Nuclei (%)

compound: Cl.O=c1c2cccn2c2ccccc2n1CCCN1CCC(c2ccc(Cl)cc2)CC1
reportedMetric: Population Healthy Nuclei (%)
reading: 19
--
compound: CCN1CCN(Cc2ccc(Nc3ncc(F)c(-c4cc(F)c5nc(C)n(C(C)C)c5c4)n3)nc2)CC1.CS(=O)(=O)O
reportedMetric: Population Healthy Nuclei (%)
reading: 25
--
compound: O=C(Nc1cccnn1)N1CCC(=Cc2cccc(Oc3ccc(C(F)(F)F)cn3)c2)CC1
reportedMetric: Population Healthy Nuclei (%)
reading: 88
--
compound: CCN1CCN(c2ccc(Nc3cc(N(C)C(=O)Nc4c(Cl)c(OC)cc(OC)c4Cl)ncn3)cc2)CC1
reportedMetric: Population Healthy Nuclei (%)
reading: 87
--
compound: COc1ccc(-c2ccc3c(N4CCOCC4)nc(N4C[C@@H](C)O[C@@H](C)C4)nc3n2)cc1CO
reportedMetric: Population Healthy Nuclei (%)
reading: 87
--
compound: CN1C2CCC1CC(OC(c1ccc(F)cc1)c1ccc(F)cc1)C2.Cl (configuration not stated)
reportedMetric: Population Healthy Nuclei (%)
reading: 21
--
compound: O=C(Nc1ccc(-n2nc(-c3cccnc3)cc2C(F)(F)F)cn1)c1ccc(-c2ccccc2)c(F)c1
reportedMetric: Population Healthy Nuclei (%)
reading: 47
--
compound: O=C1NC(=O)C(c2cnc3ccccn23)=C1c1cn2c3c(cc(F)cc13)CN(C(=O)N1CCCCC1)CC2
reportedMetric: Population Healthy Nuclei (%)
reading: 5
--
compound: CN1CCC(=C2c3ccccc3CC(=O)c3sccc32)CC1.O=C(O)/C=C/C(=O)O [KETOTIFEN FUMARATE]
reportedMetric: Population Healthy Nuclei (%)
reading: 22
--
compound: O=C(Nc1ccc(-c2ccnc(Nc3ccc(N4CCOCC4)cc3)n2)cc1)[C@@H]1CCCN1
reportedMetric: Population Healthy Nuclei (%)
reading: 15
--
compound: CCc1cccc(CC)c1NC(=O)c1nn(C)c2c1CCc1cnc(Nc3ccc(C(=O)NC4CCN(C)CC4)cc3OC(F)(F)F)nc1-2
reportedMetric: Population Healthy Nuclei (%)
reading: 16
--
compound: O=C(Cc1ccc(-c2ccc(OCCN3CCOCC3)cc2)cn1)NCc1ccccc1
reportedMetric: Population Healthy Nuclei (%)
reading: 28
--
compound: COc1cc(N2CCN(C)CC2)ccc1Nc1ncc2c(n1)N(C)c1ccccc1C(=O)N2C
reportedMetric: Population Healthy Nuclei (%)
reading: 15
--
compound: Cc1cn(-c2cc(NC(=O)c3ccc(C)c(Nc4nccc(-c5cccnc5)n4)c3)cc(C(F)(F)F)c2)cn1
reportedMetric: Population Healthy Nuclei (%)
reading: 32
--
compound: C=CCn1c(=O)c2cnc(Nc3ccc(N4CCN(C)CC4)cc3)nc2n1-c1cccc(C(C)(C)O)n1
reportedMetric: Population Healthy Nuclei (%)
reading: 27
--
compound: O=C1N/C(=N/c2ccccc2F)S/C1=C\c1ccc(C(=O)O)cc1
reportedMetric: Population Healthy Nuclei (%)
reading: 51
--
compound: O=C(Nc1ccc(Cl)cc1)Nc1cccc(-c2cccc(N3CCCC3)n2)c1
reportedMetric: Population Healthy Nuclei (%)
reading: 14
--
compound: Cn1nc(C(=O)NCc2ccc(C(=O)O)cc2)cc1-c1ccc2[nH]ccc2c1
reportedMetric: Population Healthy Nuclei (%)
reading: 84
--
compound: Cn1nc(C(F)(F)F)cc1-c1cnc(N2CCc3cc(S(=O)(=O)Nc4c(F)cc(Cl)cc4F)cc(N4CCCC4=O)c32)nc1
reportedMetric: Population Healthy Nuclei (%)
reading: 86
--
compound: COc1cc2ncnc(Nc3ccc(F)c(Cl)c3)c2cc1NC(=O)/C=C/CN1CCCCC1 [DACOMITINIB ANHYDROUS]
reportedMetric: Population Healthy Nuclei (%)
reading: 89
--
compound: S=C(NCCCc1c[nH]cn1)NCCCN(Cc1ccc(Cl)c(Cl)c1)c1ccc(Br)cn1
reportedMetric: Population Healthy Nuclei (%)
reading: 3
--
compound: CCn1c(=O)c(-c2ccc(-c3cncs3)cc2Cl)cc2cnc(Nc3ccc(N4CCN(C)CC4)cc3)nc21
reportedMetric: Population Healthy Nuclei (%)
reading: 55
--
compound: CCOc1cc2ncc(C#N)c(Nc3ccc(OCc4ccccn4)c(Cl)c3)c2cc1NC(=O)/C=C/CN(C)C
reportedMetric: Population Healthy Nuclei (%)
reading: 50
--
compound: CCn1cc(-c2ccnc3[nH]c(-c4cccc(CN(C)C)c4)cc23)c(-c2ccc(NC(=O)N(C)C)cc2)n1
reportedMetric: Population Healthy Nuclei (%)
reading: 81
--
compound: Cl.Oc1ccc2c3c1O[C@H]1c4[nH]c5c(c4C[C@@]4(O)[C@@H](C2)N(CC2CC2)CC[C@]314)C[C@@]1(O)[C@H]2Cc3ccc(O)c4c3[C@@]1(CCN2CC1CC1)[C@H]5O4
reportedMetric: Population Healthy Nuclei (%)
reading: 45
--
compound: CN1CCN(C(=O)C(C)(C)c2ccc(C(=O)Nc3cn4cc(-c5cc(C(C)(C)C)cc(C(C)(C)C)c5)ccc4n3)cc2)CC1
reportedMetric: Population Healthy Nuclei (%)
reading: 80
--
compound: CCOc1cc(C(=O)N2CCC(N3CCN(C)CC3)CC2)ccc1Nc1ncc2c(n1)N(C1CCCC1)c1ccccc1C(=O)N2C
reportedMetric: Population Healthy Nuclei (%)
reading: 6
--
compound: CCc1cccc(CC)c1NC(=O)c1nn(C)c2c1CCc1cnc(Nc3ccc(N4CCN(C)CC4)cc3OC)nc1-2
reportedMetric: Population Healthy Nuclei (%)
reading: 89
--
compound: CNC(=O)c1ccc(Nc2nc(OC3CCCC3)c3c(-c4ccc5nc(C)oc5c4)c[nH]c3n2)c(OC)c1
reportedMetric: Population Healthy Nuclei (%)
reading: 91
--
compound: Cc1cc(C)c(S(=O)(=O)N(Cc2ccc(-c3cccc(S(C)(=O)=O)c3)cc2)Cc2ccc(C(F)(F)F)o2)c(C)c1
reportedMetric: Population Healthy Nuclei (%)
reading: 48
--
compound: CCCS(=O)(=O)Nc1ccc(F)c(C(=O)c2c[nH]c3ncc(Cl)cc23)c1F
reportedMetric: Population Healthy Nuclei (%)
reading: 86
--
compound: COc1ccc(S(=O)(=O)N(CCO)c2ccccc2CN(C)C/C=C/c2ccc(Cl)cc2)cc1.O=P(O)(O)O
reportedMetric: Population Healthy Nuclei (%)
reading: 87
